Experiment: UV-visible absorbance spectroscopy, 15 μM in 90% aqueous, 10% DMSO
Format: physicochemical
Conditions: NaOH (pH 12), anionic/phenoxide form, 90% aqueous 10% DMSO
Property: Absorbance peak (nm)

// query Which Absorbance peak value belongs to O=C1OC2(c3ccccc31)c1ccc3cc(O)ccc3c1Oc1c2ccc2cc(O)ccc12 [Compound 21, Naphthofluorescein, reference compound] ?
// result 600

// query Which Absorbance peak value belongs to COC(=O)c1ccccc1-c1c2ccc(=N)cc-2oc2c1ccc1cccc(O)c12 [Compound 15b] ?
// result 615

// query Which Absorbance peak value belongs to COC(=O)c1ccccc1-c1c2ccc3cc(O)ccc3c2oc2c1ccc1cc(=O)ccc12 ?
// result 610

// query Which Absorbance peak value belongs to O=C1OC2(c3ccccc31)c1ccc3cccc(O)c3c1Oc1c2ccc2cccc(O)c12 ?
// result 675

// query Which Absorbance peak value belongs to COC(=O)c1ccccc1-c1c2ccc3cccc(O)c3c2oc2c1ccc1cccc(=O)c12 ?
// result 685

// query Which Absorbance peak value belongs to COC(=O)c1ccccc1-c1c2ccc(=O)cc-2oc2c1ccc1cc(O)ccc12 [Compound 20c] ?
// result 545

// query Which Absorbance peak value belongs to COC(=O)c1ccccc1-c1c2ccc(=[N+](C)C)cc-2oc2c1ccc1cccc(O)c12 [Compound 15d] ?
// result 630

Reference source: patent US9958451B2
